Origin of the recorded values: PubChem BioAssay AID372

# MEASUREMENT_TARGET: Gag-Pol polyprotein (Human immunodeficiency virus type 1 group M subtype B (isolate HXB2)) (UniProt P04585)
# PROCEDURE_DETAILS: RNase H inhibition, HIV 1 Gag Pol polyprotein, FRET biochemical assay, screening (AID 372)
# TEST_CONDITIONS: HIV-1 RT RNase H, FRET RNA/DNA substrate fluorescence; at 10 µM; hits give high values
The campaign covered roughly 100,000 compounds. About 770 (0.77%) were called active. This excerpt belongs to a sample that is enriched for actives.
Please go through the items and note down their inhibition.
Numbers only, in %.

These solved cases illustrate the format of a correct answer.
- MOLECULAR_STRING: "Cc1c(-c2ccc(C=C3C(=O)NC(=S)NC3=O)o2)ccc([N+](=O)[O-])c1C"
  UNIT_ABBREVIATION: "%"
  inhibition: 43
- MOLECULAR_STRING: "COc1ccc(C2c3c(c4ccccc4oc3=O)Oc3c2c(=O)oc2ccccc32)cc1Cn1nc(C)c([N+](=O)[O-])c1C"
  UNIT_ABBREVIATION: "%"
  inhibition: 16
- MOLECULAR_STRING: "COc1ccc(OCC(=O)Nc2ccc(Br)cc2C(=O)c2ccccc2)cc1"
  UNIT_ABBREVIATION: "%"
  inhibition: 51
- MOLECULAR_STRING: "Cc1cc(OCc2ccc(Cl)cc2)c2c3c(c(=O)oc2c1)CCC3"
  UNIT_ABBREVIATION: "%"
  inhibition: 3
- MOLECULAR_STRING: "Cc1cccc(-n2c(/C=C/c3ccco3)nc3ccccc3c2=O)c1"
  UNIT_ABBREVIATION: "%"
  inhibition: 4

Parameters: items (list). Returns: inhibition for each item.
1. COc1ccc(Br)cc1CN1CCN(C(=O)COc2ccc(Cl)cc2)CC1
2. Cc1cc([N+](=O)[O-])c(C)cc1-c1ccc(C=C2C(=O)NC(=O)NC2=O)o1
3. O=C(COc1ccc2ccccc2c1)N1CCN(Cc2ccc3c(c2)OCO3)CC1

52
16
17
